- Tested on: Streptococcus sp.
- methodSummary: in vitro antibacterial evaluation, MIC by broth dilution
- Type: cell-based
- setupConditions: strain GC 1894; broth dilution, 18 hours at 35° C.
- From the text: Methods for in vitro Antibacterial Evaluation (Table 1) […]
valueType: MIC Streptococcus pneumoniae (GC 1894)

CC(C)=CCCC(C)=CCOc1ccc(C2OCC3OC(OC4C(CO)OC(Oc5ccc(CC6NC(=O)C(C(C)c7ccccc7)NC(=O)CNC(=O)C(CO)NC(=O)C(C(O)C7CNC(=N)N7C7OC(CO)C(O)C(O)C7O)NC(=O)C(C(O)C7CNC(=N)N7)NC6=O)cc5)C(O)C4O)C(O)C(O)C3O2)cc1 (centres unmarked)	<0.06 µg/mL
CC(c1ccccc1)C1NC(=O)CNC(=O)C(CO)NC(=O)C(C(O)C2CNC(=N)N2C2OC(CO)C(O)C(O)C2O)NC(=O)C(C(O)C2CNC(=N)N2)NC(=O)C(Cc2ccc(O)c(NC(=O)c3ccccc3)c2)NC1=O (centres unmarked)	64 µg/mL
CC(c1ccccc1)C1NC(=O)CNC(=O)C(CO)NC(=O)C(C(O)C2CNC(=N)N2C2OC(CO)C(O)C(O)C2O)NC(=O)C(C(O)C2CNC(=N)N2)NC(=O)C(Cc2ccc(OC3OC(CO)C(OC4OC5COC(c6ccc7c(c6)OCO7)OC5C(O)C4O)C(O)C3O)cc2)NC1=O (centres unmarked)	<0.06 to 0.12 µg/mL
CC(c1ccccc1)C1NC(=O)CNC(=O)C(CO)NC(=O)C(C(O)C2CNC(=N)N2C2OC(CO)C(O)C(O)C2O)NC(=O)C(C(O)C2CNC(=N)N2)NC(=O)C(Cc2ccc3oc(-c4cccc(F)c4)nc3c2)NC1=O (centres unmarked)	16 µg/mL
Cc1cc(C2OCC3OC(OC4C(CO)OC(Oc5ccc(CC6NC(=O)C(C(C)c7ccccc7)NC(=O)CNC(=O)C(CO)NC(=O)C(C(O)C7CNC(=N)N7C7OC(CO)C(O)C(O)C7O)NC(=O)C(C(O)C7CNC(=N)N7)NC6=O)cc5)C(O)C4O)C(O)C(O)C3O2)ccc1[N+](=O)[O-] (centres unmarked)	0.5 µg/mL
CC(c1ccccc1)C1NC(=O)CNC(=O)C(CO)NC(=O)C(C(O)C2CNC(=N)N2C2OC(CO)C(O)C(O)C2O)NC(=O)C(C(O)C2CNC(=N)N2)NC(=O)C(Cc2ccc(OC3OC(CO)C(OC4OC5COC(c6cccc(-c7ccccc7)c6)OC5C(O)C4O)C(O)C3O)cc2)NC1=O (centres unmarked)	<0.06 µg/mL
CCOc1cc(C2OCC3OC(OC4C(CO)OC(Oc5ccc(CC6NC(=O)C(C(C)c7ccccc7)NC(=O)CNC(=O)C(CO)NC(=O)C(C(O)C7CNC(=N)N7C7OC(CO)C(O)C(O)C7O)NC(=O)C(C(O)C7CNC(=N)N7)NC6=O)cc5)C(O)C4O)C(O)C(O)C3O2)ccc1OC (centres unmarked)	0.5 µg/mL

Let us move to another entry and its MIC Streptococcus pneumoniae (GC 1894).
Note down MIC Streptococcus pneumoniae (GC 1894) recorded for Cc1ccc(Oc2ccc(C3OCC4OC(OC5C(CO)OC(Oc6ccc(CC7NC(=O)C(C(C)c8ccccc8)NC(=O)CNC(=O)C(CO)NC(=O)C(C(O)C8CNC(=N)N8C8OC(CO)C(O)C(O)C8O)NC(=O)C(C(O)C8CNC(=N)N8)NC7=O)cc6)C(O)C5O)C(O)C(O)C4O3)cc2)cc1 (centres unmarked)
<0.06 µg/mL

====

- Tested on: Staphylococcus aureus
- methodSummary: zone of inhibition, agar well assay plate
- Type: cell-based
- setupConditions: 25 μl of extract per 5 mm well, incubated overnight at 37° C.
Below is a list of entries, each paired with its recorded Zone of Inhibition vs. S. aureus value.
Number only, in mm; omit the unit.

// known answers, use as guide
CCC(C)CC(=O)OC1C(CO)OC(OC2C(CO)OC(Oc3ccc(CC4NC(=O)C(C(C)c5ccccc5)NC(=O)CNC(=O)C(CO)NC(=O)C(C(O)C5CNC(=N)N5C5OC(CO)C(O)C(O)C5O)NC(=O)C(C(O)C5CNC(=N)N5)NC4=O)cc3)C(O)C2O)C(O)C1O (stereo not shown) [Example 271c]	12
CC(C)CCC(=O)OC1C(CO)OC(OC2C(CO)OC(Oc3ccc(CC4NC(=O)C(C(C)c5ccccc5)NC(=O)CNC(=O)C(CO)NC(=O)C(C(O)C5CNC(=N)N5C5OC(CO)C(O)C(O)C5O)NC(=O)C(C(O)C5CNC(=N)N5)NC4=O)cc3)C(O)C2O)C(O)C1O (stereo not shown) [Example 270c]	11
CCCC(=O)OC1C(O)C(CO)OC(OC2C(CO)OC(Oc3ccc(CC4NC(=O)C(C(C)c5ccccc5)NC(=O)CNC(=O)C(CO)NC(=O)C(C(O)C5CNC(=N)N5C5OC(CO)C(O)C(O)C5O)NC(=O)C(C(O)C5CNC(=N)N5)NC4=O)cc3)C(O)C2O)C1O (stereo not shown) [Example 272b]	8

Note down Zone of Inhibition vs. S. aureus recorded for CCCCCCC(=O)OC1C(O)C(CO)OC(OC2C(CO)OC(Oc3ccc(CC4NC(=O)C(C(C)c5ccccc5)NC(=O)CNC(=O)C(CO)NC(=O)C(C(O)C5CNC(=N)N5C5OC(CO)C(O)C(O)C5O)NC(=O)C(C(O)C5CNC(=N)N5)NC4=O)cc3)C(O)C2O)C1O (stereo not shown) [Example 274b]
10

====

- Tested on: Streptococcus sp.
- methodSummary: in vitro antibacterial evaluation, MIC by broth dilution
- Type: cell-based
- setupConditions: strain GC 4563; broth dilution, 18 hours at 35° C.
valueType: MIC Streptococcus pyogenes (GC 4563)

CCOc1cc(C2OCC3OC(OC4C(CO)OC(Oc5ccc(CC6NC(=O)C(C(C)c7ccccc7)NC(=O)CNC(=O)C(CO)NC(=O)C(C(O)C7CNC(=N)N7C7OC(CO)C(O)C(O)C7O)NC(=O)C(C(O)C7CNC(=N)N7)NC6=O)cc5)C(O)C4O)C(O)C(O)C3O2)ccc1OC (centres unmarked) [Example 152]	4 µg/mL

Note down MIC Streptococcus pyogenes (GC 4563) recorded for CC(c1ccccc1)C1NC(=O)CNC(=O)C(CO)NC(=O)C(C(O)C2CNC(=N)N2C2OC(CO)C(O)C(O)C2O)NC(=O)C(C(O)C2CNC(=N)N2)NC(=O)C(Cc2ccc(OC3OC(CO)C(OC4OC5COC(c6cccc(-c7ccccc7)c6)OC5C(O)C4O)C(O)C3O)cc2)NC1=O (centres unmarked) [Example 154]
<0.06 µg/mL

====

- Tested on: Escherichia coli
- methodSummary: in vitro antibacterial evaluation, MIC by broth dilution
- Format: cell-based
- setupConditions: strain GC 4559, 18 hours at 35° C.
Below is a list of entries, each paired with its recorded MIC Escherichia coli (GC 4559) value.
Number only, in µg/mL; omit the unit.

// known answers, use as guide
CC(c1ccccc1)C1NC(=O)CNC(=O)C(CO)NC(=O)C(C(O)C2CNC(=N)N2C2OC(CO)C(O)C(O)C2O)NC(=O)C(C(O)C2CNC(=N)N2)NC(=O)C(Cc2ccc(OC3OC(CO)C(OC4OC5COC(c6ccc7c(c6)OCCO7)OC5C(O)C4O)C(O)C3O)cc2)NC1=O (stereo not shown)	64
CC(c1ccccc1)C1NC(=O)CNC(=O)C(CO)NC(=O)C(C(O)C2CNC(=N)N2C2OC(CO)C(O)C(O)C2O)NC(=O)C(C(O)C2CNC(=N)N2)NC(=O)C(Cc2ccc(OC3OC(CO)C(OC4OC5COC(c6ccc(C(C)(C)C)cc6)OC5C(O)C4O)C(O)C3O)cc2)NC1=O (stereo not shown)	64

Note down MIC Escherichia coli (GC 4559) recorded for CC(c1ccccc1)C1NC(=O)CNC(=O)C(CO)NC(=O)C(C(O)C2CNC(=N)N2C2OC(CO)C(O)C(O)C2O)NC(=O)C(C(O)C2CNC(=N)N2)NC(=O)C(Cc2ccc(OC3OC(CO)C(OC4OC5COC(c6cc7c(cc6Cl)OCO7)OC5C(O)C4O)C(O)C3O)cc2)NC1=O (stereo not shown)
64

====

- Test system: Staphylococcus sp.
- methodSummary: in vitro antibacterial evaluation, MIC by broth dilution
- Format: cell-based
- setupConditions: strain GC 4545; broth dilution, 18 hours at 35° C.
Below is a list of entries, each paired with its recorded MIC Staphylococcus aureus (GC 4545) value.

CC(c1ccccc1)C1NC(=O)CNC(=O)C(CO)NC(=O)C(CC2CNC(=N)N2C2OC(CO)C(O)C(O)C2O)NC(=O)C(CC2CNC(=N)N2)NC(=O)C(Cc2ccc(OC3OC(CO)C(OC4OC5COC(c6ccc(OCc7ccccc7)cc6)OC5C(O)C4O)C(O)C3O)cc2)NC1=O (centres unmarked)	4 µg/mL

Let us move to another entry and its MIC Staphylococcus aureus (GC 4545).
Note down MIC Staphylococcus aureus (GC 4545) recorded for CC(c1ccccc1)C1NC(=O)CNC(=O)C(CO)NC(=O)C(C(O)C2CN(Cc3ccc4ccccc4c3)C(=N)N2C2OC(CO)C(O)C(O)C2O)NC(=O)C(C(O)C2CNC(=N)N2)NC(=O)C(Cc2ccc(OC3OC(CO)C(OC4OC(CO)C(O)C(O)C4O)C(O)C3O)cc2)NC1=O (centres unmarked)
>128 µg/mL

Each recorded value in this set is attributed to patent US6914045B2.
